System: morningglory
Assay: Test B pre-/postemergence herbicide test
Type: in vivo, Ipomoea coccinea
Settings: Postemergence, 500 g ai/ha; visual rating after 13 to 15 days, scale 0 (no effect) to 100 (complete control)
Description: […] At the same time, plants selected from these crop and weed species and also blackgrass (Alopecurus myosuroides Huds.), wheat (Triticum aestivum L.) and wild oat (Avena fatua L.) were treated with postemergence applications of test chemicals formulated in the same manner. […] Treated plants and controls were maintained in a greenhouse for 13 to 15 days, after which time all species were compared to controls and visually evaluated. […]
// Plant response rating, Morningglory lookup, one value per entry

compound: CCn1nc(C(C)(C)C)cc1C(=O)Nc1cccc2c1CNC2=O [Compound 52]
Plant response rating, Morningglory: 0
--
compound: CCn1nc(C(C)(C)C)cc1C(=O)Nc1cccc(C(=O)OCC2CC2)c1C [Compound 93]
Plant response rating, Morningglory: 40
--
compound: CCn1nc(C(C)(C)C)cc1C(=O)Nc1cc(C(=O)OC)c(OC)cc1F [Compound 75]
Plant response rating, Morningglory: 50
--
compound: CCN(CC)C(=O)c1cc(NC(=O)c2cc(C(C)(C)C)nn2CC)ccc1C [Compound 69]
Plant response rating, Morningglory: 0
--
compound: CCC(=NO)c1cccc(NC(=O)c2cc(C(C)(C)C)nn2C)c1 [Compound 118]
Plant response rating, Morningglory: 70

Fill in Plant response rating, Morningglory for record CCn1nc(C(C)(C)C)cc1C(=O)Nc1cccc(C(=O)OC)c1 [Compound 81]
30

Fill in Plant response rating, Morningglory for record CC(=NO)c1cccc(NC(=O)c2cc(C(C)(C)C)nn2CC(F)(F)F)c1 [Compound 112]
30

Fill in Plant response rating, Morningglory for record CCCn1nc(C(C)(C)C)cc1C(=O)Nc1cccc(C(=O)NCC)c1 [Compound 57]
10

* * *

test system: corn; test: Test B pre-/postemergence herbicide test; format: in vivo, Zea mays; conditions: postemergence, 500 g ai/ha; scale 0 to 100, 0 is no effect, 100 is complete control
// Corn plant response rating lookup, one value per entry

Below, 6 compounds whose answers are already recorded.
compound: Cc1nn(C(C)(C)C)cc1C(=O)Nc1cc(C(=O)N(C)C)ccc1F [Compound 344]
Corn plant response rating: 10

compound: CCNC(=O)c1cccc(NC(=O)c2nn(C(C)(C)CC)nc2CC)c1 [Compound 376]
Corn plant response rating: 30

compound: CCC1=NN(C(C)(C)C)CC1C(=O)Nc1cc(C(=O)N2CCCC2)ccc1F (racemic) [Compound 341]
Corn plant response rating: 10

compound: CCNC(=O)c1ccc(F)c(NC(=O)c2c(F)c(C(C)(C)C)nn2CC)c1 [Compound 275]
Corn plant response rating: 0

compound: CCCOC(=O)c1cc(NC(=O)c2cc(C(C)(C)C)nn2CC)c(F)cc1F [Compound 249]
Corn plant response rating: 20

compound: CCn1nc(C(C)(C)C)cc1C(=O)Nc1cc(C(=O)OC(C)C)c(F)cc1F [Compound 248]
Corn plant response rating: 30

Fill in Corn plant response rating for record CCNC(=O)c1cccc(NC(=O)c2cc(C(C)(C)C)n[nH]2)c1 [Compound 351]
10

Fill in Corn plant response rating for record CCN(C)C(=O)c1cc(NC(=O)c2cc(C(C)(C)C)nn2CC)c(F)cc1F [Compound 254]
10

* * *

tested on: pigweed; test: Test B pre-/postemergence herbicide test; assay type: in vivo, Amaranthus retroflexus; conditions: 125 g ai/ha; visual rating, scale 0 (no effect) to 100 (complete control); postemergence
// Pigweed plant response rating lookup, one value per entry
The answer should be a number; do not append a unit.

Below, 3 molecules whose answers are already recorded.
molecule: CCc1nn(C(C)(C)CC)nc1C(=O)Nc1cccc(C(=O)N2CC=CC2)c1
study.target: pigweed
measured: 30

molecule: CCc1nn(C(C)C)nc1C(=O)Nc1cccc(C(=O)N2CC=CC2)c1
study.target: pigweed
measured: 20

molecule: CCC1=NN(C(C)(C)C)CC1C(=O)Nc1cc(C(=O)N2CC=CC2)ccc1F (racemic)
study.target: pigweed
measured: 50

--- query ---
Enter Pigweed plant response rating (test system pigweed) for CCNC(=O)c1ccc(F)c(N(C(C)=O)C(=O)c2cc(C(C)(C)C)nn2CC)c1
60

* * *

tested on: giant foxtail; assay: Test B pre-/postemergence herbicide test; type: in vivo, Setaria faberi; conditions: 500 g ai/ha; visual rating 0-100, 0 no effect, 100 complete control; preemergence
endpoint: Plant response rating, Foxtail, Giant
The answer should be a number; do not append a unit.

Below, 3 compounds whose answers are already recorded.
compound: C#CCNC(=O)c1cccc(NC(=O)c2sc(C(C)(C)C)nc2C)c1 [Compound 203]
endpoint: Plant response rating, Foxtail, Giant
measured: 10
--
compound: C=CCN(C)C(=O)c1cccc(NC(=O)c2cc(C(C)(C)C)nn2CC)n1 [Compound 163]
endpoint: Plant response rating, Foxtail, Giant
measured: 80
--
compound: CCNC(=O)c1cc(C)nc(NC(=O)c2cc(C(C)(C)C)nn2CC)c1 [Compound 149]
endpoint: Plant response rating, Foxtail, Giant
measured: 100

Enter Plant response rating, Foxtail, Giant (test system giant foxtail) for CCn1nc(C(C)(C)C)cc1C(=O)Nc1cc(C#N)ccc1F [Compound 140]
80

Enter Plant response rating, Foxtail, Giant (test system giant foxtail) for C#CCN(C)C(=O)c1ccnc(NC(=O)c2cc(C(C)(C)C)nn2CC)c1 [Compound 160]
70

* * *

// Rice plant response rating lookup, one value per entry
test system: rice; test: Test C flooded paddy test; type: in vivo, Oryza sativa; conditions: 62 g ai/ha, scale 0 to 100 (0 no effect, 100 complete control)
The answer should be a number; do not append a unit.

Below, 5 molecules whose answers are already recorded.
smiles: CCn1nc(C(C)(C)C)cc1C(=O)Nc1cccc(C#N)c1
study.target: rice
measured: 0
--
smiles: CCC(=NO)c1cccc(NC(=O)c2cc(C(C)(C)C)nn2C)c1
study.target: rice
measured: 20
--
smiles: CCn1nc(C(C)(C)C)cc1C(=O)Nc1cccc(C(=O)NOC)c1
study.target: rice
measured: 0
--
smiles: CCNC(=O)c1ccnc(NC(=O)c2cc(C(C)(C)C)nn2CC)c1
study.target: rice
measured: 50
--
smiles: CCn1nc(C(C)(C)C)cc1C(=O)Nc1cc(C(=O)N2CCCC2)ccc1F
study.target: rice
measured: 50

Fill in Rice plant response rating for record CCc1nn(C(C)(C)C)cc1C(=O)Nc1cc(C(=O)NC)ccc1F
0

* * *

// Plant response rating, Johnsongrass lookup, one value per entry
test system: johnsongrass; assay: Test C pre-/postemergence herbicide test; format: in vivo, Sorghum halepense; settings: 62 g ai/ha; preemergence; scale 0 to 100

Below, 3 molecules whose answers are already recorded.
molecule: CCn1nc(C(C)(C)C)cc1C(=O)Nc1cc(C(=O)N2CCCC2)ccc1F
Plant response rating, Johnsongrass: 65
//
molecule: CCn1nc(C(C)(C)C)cc1C(=O)Nc1cncc(C(=O)N(C)C)n1
Plant response rating, Johnsongrass: 55
//
molecule: C=CCNC(=O)c1cccc(NC(=O)c2sc(C(C)(C)C)nc2C)c1
Plant response rating, Johnsongrass: 0

Enter Plant response rating, Johnsongrass (test system johnsongrass) for CCn1nc(C2(C)CC2)cc1C(=O)Nc1cccc(C(=O)N2CC=CC2)c1
0

Enter Plant response rating, Johnsongrass (test system johnsongrass) for CCC1=NN(C(C)(C)C)CC1C(=O)Nc1cc(C(=O)N2CC=CC2)ccc1F (racemic)
15

Enter Plant response rating, Johnsongrass (test system johnsongrass) for CCc1nn(C(C)(C)C)nc1C(=O)Nc1cccc(C(=O)NC2CC2)c1
100

Enter Plant response rating, Johnsongrass (test system johnsongrass) for CCC1=NN(C(C)(C)C)CC1C(=O)Nc1cc(C(=O)N(C)CC)ccc1F (racemic)
55

* * *

test system: woolly cupgrass; experiment: Test C pre-/postemergence herbicide test; type: in vivo, Eriochloa villosa; conditions: 250 g ai/ha; scale 0-100; preemergence
// Plant response rating, Cupgrass, Woolly lookup, one value per entry
The answer should be a number; do not append a unit.

Below, 5 compounds whose answers are already recorded.
compound: CCC1=NN(C(C)(C)C)CC1C(=O)Nc1cc(C(=O)N2CCCC2)ccc1F (racemic)
Plant response rating, Cupgrass, Woolly: 100
--
compound: CCn1nc(C2(C)CC2)cc1C(=O)Nc1cccc(C(=O)N2CC=CC2)c1
Plant response rating, Cupgrass, Woolly: 60
--
compound: CCNC(=O)c1cccc(NC(=O)c2nn(C(C)(C)CC)nc2CC)c1
Plant response rating, Cupgrass, Woolly: 75
--
compound: CCNC(=O)c1ccc(F)c(N(C(C)=O)C(=O)c2cc(C(C)(C)C)nn2CC)c1
Plant response rating, Cupgrass, Woolly: 80
--
compound: CCC1=NN(C(C)(C)C)CC1C(=O)Nc1cc(C(=O)N2CC=CC2)ccc1F (racemic)
Plant response rating, Cupgrass, Woolly: 45

Fill in Plant response rating, Cupgrass, Woolly for record CCc1nn(C(C)(C)CC)nc1C(=O)Nc1cccc(C(=O)N(C)C)c1
70

src = patent US20060069132A1
